These measurements were taken from patent US9216999B2.

// reported IC50 for each item listed
# assay_system: JAK2 (Homo sapiens (Human))
# assay: Enzyme assay (Assay Example^a 1), JAK2
# Assay type: biochemical
# conditions_used: ATP 100 μM

# compound, assay_system, IC50 (µM)
records = [
    ("Fc1cc(NC[C@H]2CC[C@H](c3nnn4cnc5[nH]ccc5c34)CC2)cc(F)c1F", "JAK2 (Homo sapiens (Human))", 0.18),
    ("OC1(C(F)(F)F)CN(C[C@H]2CC[C@H](c3nnn4cnc5[nH]ccc5c34)CC2)C1", "JAK2 (Homo sapiens (Human))", 0.022),
    ("OCC1(NC[C@H]2CC[C@H](c3nnn4cnc5[nH]ccc5c34)CC2)CC1", "JAK2 (Homo sapiens (Human))", 0.054),
    ("N#CCNC(=O)C[C@H]1CC[C@H](c2nnn3cnc4[nH]ccc4c23)CC1 [443b]", "JAK2 (Homo sapiens (Human))", 0.03),
    ("Cc1ccc(CN(C[C@H]2CC[C@H](c3nnn4cnc5[nH]ccc5c34)CC2)C(=O)CC#N)o1", "JAK2 (Homo sapiens (Human))", 0.04),
    ("N#C/C=C/[C@H]1CC[C@H](c2nnn3cnc4[nH]ccc4c23)CC1", "JAK2 (Homo sapiens (Human))", 0.031),
    ("OCCN(CCO)C[C@H]1CC[C@H](c2nnn3cnc4[nH]ccc4c23)CC1", "JAK2 (Homo sapiens (Human))", 0.11),
    ("CC(=O)N[C@H]1CCN(C[C@H]2CC[C@H](c3nnn4cnc5[nH]ccc5c34)CC2)C1", "JAK2 (Homo sapiens (Human))", 0.23),
]

====

Below, each entry is listed with its recorded IC50.
# assay_system: JAK3 (Homo sapiens (Human), UniProt P52333)
# Sequence (P52333 whole entry): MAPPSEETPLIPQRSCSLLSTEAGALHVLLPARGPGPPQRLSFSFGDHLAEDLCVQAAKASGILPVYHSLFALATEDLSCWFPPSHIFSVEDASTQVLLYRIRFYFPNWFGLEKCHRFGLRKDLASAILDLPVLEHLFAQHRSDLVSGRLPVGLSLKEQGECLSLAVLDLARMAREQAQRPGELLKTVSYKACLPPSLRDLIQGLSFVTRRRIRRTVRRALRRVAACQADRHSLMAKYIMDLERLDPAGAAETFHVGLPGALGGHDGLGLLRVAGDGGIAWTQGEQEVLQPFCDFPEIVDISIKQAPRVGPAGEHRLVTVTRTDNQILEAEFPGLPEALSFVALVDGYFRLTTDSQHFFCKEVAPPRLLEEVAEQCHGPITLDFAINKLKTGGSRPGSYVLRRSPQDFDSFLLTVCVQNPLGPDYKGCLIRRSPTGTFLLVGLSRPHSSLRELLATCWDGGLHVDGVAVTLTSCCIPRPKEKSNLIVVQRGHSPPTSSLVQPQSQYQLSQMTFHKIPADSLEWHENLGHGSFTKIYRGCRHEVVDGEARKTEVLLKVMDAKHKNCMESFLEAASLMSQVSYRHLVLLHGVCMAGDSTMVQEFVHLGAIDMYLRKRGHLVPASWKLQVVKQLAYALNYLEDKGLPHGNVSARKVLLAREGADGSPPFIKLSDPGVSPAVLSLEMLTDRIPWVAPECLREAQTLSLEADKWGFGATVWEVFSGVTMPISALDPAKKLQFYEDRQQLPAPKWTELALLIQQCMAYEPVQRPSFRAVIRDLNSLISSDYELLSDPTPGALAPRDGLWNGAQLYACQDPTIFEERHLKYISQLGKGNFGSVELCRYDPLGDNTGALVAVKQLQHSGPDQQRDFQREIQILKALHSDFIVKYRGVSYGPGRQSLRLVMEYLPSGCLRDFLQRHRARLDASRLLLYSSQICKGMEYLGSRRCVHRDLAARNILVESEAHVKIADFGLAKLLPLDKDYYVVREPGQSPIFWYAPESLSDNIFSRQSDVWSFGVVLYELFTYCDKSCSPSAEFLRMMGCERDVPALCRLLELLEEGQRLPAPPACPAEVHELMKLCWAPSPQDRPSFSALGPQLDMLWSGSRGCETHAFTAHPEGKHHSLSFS
# assay: Enzyme assay (Assay Example^a 1), JAK3
# Type: biochemical
# conditions_used: ATP 100 μM; Table^a 154
Structures can show the parent of a compound that is named as a salt.

# compound, IC50
rows = [
    ("CN(C[C@H]1CC[C@H](c2nnn3cnc4[nH]ccc4c23)CC1)c1ccc(C#N)cc1 [compound 108]", "0.58 µM"),
    ("Cc1cc(NC(=O)N2CCC(c3nnn4cnc5[nH]ccc5c34)CC2)sn1 [compound 31]", "> 1 µM"),
    ("Clc1ccc(CN[C@H]2CC[C@@H](c3nnn4cnc5[nH]ccc5c34)CC2)cc1 [197a]", "> 1 µM"),
    ("Fc1cc(C(F)(F)F)ccc1CN1CCC(c2nnn3cnc4[nH]ccc4c23)CC1 [compound 157]", "0.24 µM"),
    ("FC(F)(F)CNC[C@H]1CC[C@H](c2nnn3cnc4[nH]ccc4c23)CC1 [compound 188]", "0.11 µM"),
    ("Fc1ccc(CN[C@H]2CC[C@H](c3nnn4cnc5[nH]ccc5c34)CC2)cc1 [195b]", "0.56 µM"),
    ("Clc1ccc(CNC[C@H]2CC[C@H](c3nnn4cnc5[nH]ccc5c34)CC2)cc1 [compound 177]", "0.2 µM"),
    ("c1ccc(CN2CCCC(c3nnn4cnc5[nH]ccc5c34)C2)cc1 (racemic) [compound 16]", "5.3 µM"),
    ("Fc1cc(CN2CCC(c3nnn4cnc5[nH]ccc5c34)CC2)ccc1Cl [compound 159]", "0.08 µM"),
    ("c1nc(CCNC[C@H]2CC[C@H](c3nnn4cnc5[nH]ccc5c34)CC2)c[nH]1 [compound 192, hydrochloride]", "0.32 µM"),
    ("CC(C)(C)OC(=O)N[C@H]1CC[C@H](c2nnn3cnc4[nH]ccc4c23)CC1 [compound 59]", "> 1 µM"),
    ("c1ccc(CN[C@H]2CC[C@H](c3nnn4cnc5[nH]ccc5c34)CC2)cc1 [194b]", "0.5 µM"),
    ("O=C(OCc1ccccc1)N1CCC(c2[nH]c(=S)n3cnc4[nH]ccc4c23)CC1 [compound 85]", "> 1 µM"),
    ("Cc1cc(NC(=O)N2CCCC(c3nnn4cnc5[nH]ccc5c34)C2)sn1 (racemic) [compound 21]", "0.9 µM"),
    ("FC(F)(F)c1nc2cc(NC[C@H]3CC[C@H](c4nnn5cnc6[nH]ccc6c45)CC3)ccc2[nH]1 [compound 175]", "0.34 µM"),
    ("COc1ccc(CN2CCC(c3nnn4cnc5[nH]ccc5c34)CC2)cn1 [compound 170]", "0.52 µM"),
    ("FC(F)(F)c1ccc(CN[C@H]2CC[C@H](c3nnn4cnc5[nH]ccc5c34)CC2)cc1 [138b]", "0.4 µM"),
    ("N#Cc1ccc(CNC[C@H]2CC[C@H](c3nnn4cnc5[nH]ccc5c34)CC2)cc1 [compound 93]", "0.31 µM"),
    ("FC(F)(F)c1ccc(CCN2CCC(c3nnn4cnc5[nH]ccc5c34)CC2)cc1 [compound 42]", "> 1 µM"),
    ("O=C(Nc1ccc(F)cc1)[C@H]1CC[C@H](c2nnn3cnc4[nH]ccc4c23)CC1 [compound 206]", "> 1 µM"),
    ("O=C(Nc1nncs1)N1CCC(c2nnn3cnc4[nH]ccc4c23)CC1 [compound 30]", "0.48 µM"),
    ("c1cc2c(ncn3nnc(C4CCC(NCCN5CCOCC5)CC4)c23)[nH]1 (stereo not drawn) [compound 126]", "> 1 µM"),
    ("Fc1ccc(CN2CCC(c3nnn4cnc5[nH]ccc5c34)CC2)cc1F [compound 166]", "0.17 µM"),
    ("c1cc2c(ncn3nnc(C4CCC(N5CCOCC5)CC4)c23)[nH]1 (stereo not drawn) [compound 124]", "> 1 µM"),
    ("c1cc2c(ncn3nnc([C@H]4CC[C@H](CN5CCOCC5)CC4)c23)[nH]1 [compound 91]", "0.64 µM"),
    ("O=C(CC(F)(F)F)N1CCCC(c2nnn3cnc4[nH]ccc4c23)C1 (racemic) [compound 17]", "2.1 µM"),
    ("O=C(N[C@H]1CC[C@H](c2nnn3cnc4[nH]ccc4c23)CC1)OCc1ccccc1 [compound 60]", "> 1 µM"),
    ("N#C[C@H]1CCN(C[C@H]2CC[C@H](c3nnn4cnc5[nH]ccc5c34)CC2)C1 [compound 187]", "0.37 µM"),
    ("O=C([C@H]1CC[C@H](c2nnn3cnc4[nH]ccc4c23)CC1)N1CC[C@H](F)C1 [compound 209]", "> 1 µM"),
    ("c1ccc(CCCN[C@H]2CC[C@H](c3nnn4cnc5[nH]ccc5c34)CC2)cc1 [136b]", "> 1 µM"),
    ("CC(C)(C)OC(=O)NCCN1CCC(c2nnn3cnc4[nH]ccc4c23)CC1 [compound 171]", "> 1 µM"),
    ("Clc1ccc(CCN[C@H]2CC[C@H](c3nnn4cnc5[nH]ccc5c34)CC2)cc1 [198b]", "0.4 µM"),
    ("O=C(NCc1ccc(F)cc1)[C@H]1CC[C@H](c2nnn3cnc4[nH]ccc4c23)CC1 [compound 207]", "> 1 µM"),
]
